Biological target: human activated kallikrein enzyme (Homo sapiens)
Sequence (P03952 391-638 limits assumed): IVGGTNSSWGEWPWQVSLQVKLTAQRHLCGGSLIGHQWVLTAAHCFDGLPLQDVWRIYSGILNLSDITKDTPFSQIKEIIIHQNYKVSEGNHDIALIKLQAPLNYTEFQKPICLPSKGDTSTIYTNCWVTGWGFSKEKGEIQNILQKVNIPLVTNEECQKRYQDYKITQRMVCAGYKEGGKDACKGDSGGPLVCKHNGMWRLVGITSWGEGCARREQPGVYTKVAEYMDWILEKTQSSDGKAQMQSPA
Sequence (P03952 20-390 partner limits assumed): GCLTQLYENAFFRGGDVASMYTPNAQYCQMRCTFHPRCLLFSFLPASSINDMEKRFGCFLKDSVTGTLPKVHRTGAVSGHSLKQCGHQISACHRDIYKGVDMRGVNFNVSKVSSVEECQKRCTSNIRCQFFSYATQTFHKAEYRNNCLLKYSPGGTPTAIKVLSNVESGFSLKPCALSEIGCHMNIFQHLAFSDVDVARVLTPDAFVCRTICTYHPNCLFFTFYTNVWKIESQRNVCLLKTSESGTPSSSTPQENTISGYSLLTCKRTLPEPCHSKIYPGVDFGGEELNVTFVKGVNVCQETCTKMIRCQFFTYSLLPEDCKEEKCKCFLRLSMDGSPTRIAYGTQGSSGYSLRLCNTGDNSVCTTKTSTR
Experiment: Inhibition of human activated plasma kallikrein, fluorogenic PFR-AMC substrate, 500 pM enzyme format
Assay type: biochemical
Settings: 500 pM activated kallikrein; 300 μM PFR-AMC; 30 min preincubation; 10 min room temperature; pH 7.5; read-out: Primary Dose Response Assay: Average EC50
Protocol: Compounds were evaluated for inhibition of the human activated kallikrein enzyme in two formats of an assay employing a fluorogenic peptide substrate. […] After initiation with substrate, reactions were incubated for 10 min at room temperature and fluorescence emission at 460 nm from 380 nm excitation measured with a microplate reader. […]
Entries and their measured EC50 follow.

Sample answers from the record:
Cc1cc2c(N)nccc2c(C)c1CNc1cc(N(C)Cc2ccc3ncccc3c2)ncn1	10 to 100 nM
COc1ccc(Cn2cc(C(=O)NCc3c(C)cc4c(N)nccc4c3C)cn2)cc1	10 to 100 nM
Cc1cc2c(N)nccc2c(C)c1CNC(=O)c1cnn(Cc2cn3c(Cl)c(C4CC4)ccc3n2)c1	< 1 nM
Cc1cc2c(N)nccc2c(C)c1CNc1nncc(NCc2ccc(Cn3cccn3)cc2)n1	< 1 nM
Cc1cc2c(N)nccc2c(C)c1CNc1cc(OCc2ccc(Oc3cccn(C)c3=O)cc2)cnn1	< 1 nM

Incoming: Lab request: please report EC50 under test system human activated kallikrein enzyme (Homo sapiens) for Cc1cc(Cn2cc(C(=O)NCc3c(C)cc4c(N)nccc4c3C)cn2)ccc1CC(=O)N(C)C
Outgoing: < 1 nM

Incoming: Same again, this time with Cc1cc2c(N)nccc2c(C)c1CNc1cc(N2C[C@@H](O)C[C@@H]2c2cn3cc(C4CC4)ccc3n2)ncn1
Outgoing: < 1 nM

Incoming: Entry Cc1cc2c(Nc3cc(OCc4ccc(CC(=O)N(C)C)cc4)ncn3)nccc2c(C)c1CN please
Outgoing: > 1000 nM
